- System: EKVX NSCLC
- experimental.details: NCI tumour cell line growth inhibition, 48 h
measurement.name: TGI

molecule	measurement.name	value
NC(=S)N=Nc1c(O)[nH]c2ccccc12	TGI	318 µM
C[C@H](CCCOS(C)(=O)=O)[C@H]1CC[C@H]2[C@@H]3CC[C@@H]4C[C@H](OS(C)(=O)=O)CC[C@]4(C)[C@H]3CC[C@]12C	TGI	> 2500 µM
CC1CC/C(=C\c2ccc(F)cc2)C2=C1C(c1ccc(F)cc1)n1c(s/c(=C\c3ccc(Cl)cc3)c1=O)=N2 (configuration not stated)	TGI	> 100 µM

Report TGI for each item below.
1. Nc1nc2c(ncn2CC(CO)CC(c2ccccc2)P(=O)(O)O)c(=O)[nH]1 (configuration not stated)
2. Nc1cc(N)c2nc(-c3ccccc3)c(Oc3ccc(Cl)c(Cl)c3)nc2c1
3. CCOC(=O)C1C(=O)c2cccc(OC)c2C2COC(=O)N12 (configuration not stated)
4. COc1ccccc1NC1=NCC(C)S1 (configuration not stated)

Output:
1: > 100 µM; 2: 8.35 µM; 3: > 100 µM; 4: > 100 µM

// batch mode: one TGI value per listed entry
1. CCCCn1c2c(n(CCCC)c1=[Se])-c1c(n(CCCC)c(=[Se])n1CCCC)S[Se][Se]S2
2. C[Si](C)(C)C#CCOC=C1CC1
3. CC1CC(c2ccc([N+](=O)[O-])cc2)=Nc2ccccc2S1=O (configuration not stated)
4. COc1c(OC2OC(CO)C(O)C(O)C2O)cc2c(c1OC)-c1ccc(OC)c(=O)cc1[C@@H](NC(C)=O)CC2 (some centres not stated)
5. Cc1ccc(S(=O)(=O)N/N=C2\CC3C4CCC3C2C4)cc1 (configuration not stated)

Output:
["> 100 µM", "> 100 µM", "60.9 µM", "> 100 µM", "> 100 µM"]
